Target: Histone deacetylase 3 (Homo sapiens, UniProt O15379)
Sequence (O15379 whole entry): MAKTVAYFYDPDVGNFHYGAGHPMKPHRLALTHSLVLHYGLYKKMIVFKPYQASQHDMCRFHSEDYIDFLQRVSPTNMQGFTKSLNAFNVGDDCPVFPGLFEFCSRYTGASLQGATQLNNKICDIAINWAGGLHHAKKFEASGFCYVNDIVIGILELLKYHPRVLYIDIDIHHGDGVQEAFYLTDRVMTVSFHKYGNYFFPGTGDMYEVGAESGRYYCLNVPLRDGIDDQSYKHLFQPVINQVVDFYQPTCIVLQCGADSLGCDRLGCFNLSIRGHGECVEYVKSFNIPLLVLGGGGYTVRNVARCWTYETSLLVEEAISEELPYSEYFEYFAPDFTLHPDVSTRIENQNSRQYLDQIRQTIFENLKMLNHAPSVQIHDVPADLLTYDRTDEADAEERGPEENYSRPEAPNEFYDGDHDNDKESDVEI
Assay: Inhibition of recombinant human HDAC3 expressed in baculovirus infected High5 insect cells using Ac-Lys-Tyr-Lys(epsilon-acetyl)-AMC as substrate after 24 hrs by fluorescence assay
Form field: pIC50 (one value per entry).
Reminder that pIC50 is minus the log10 of a molar concentration.

- molecule: "CCc1c2c(nc3ccc(O)cc13)-c1cc3c(c(=O)n1C2)COC(=O)[C@@]3(CC)OC(=O)CCCCCCC(=O)NO"
  pIC50: 7.00
- molecule: "CCc1c2c(nc3ccc(OC(=O)N4CCN(C(=O)CCCCCCC(=O)NO)CC4)cc13)-c1cc3c(c(=O)n1C2)COC(=O)[C@]3(O)CC"
  pIC50: 5.03
- molecule: "CCc1c2c(nc3ccc(O)cc13)-c1cc3c(c(=O)n1C2)COC(=O)[C@@]3(CC)OC(=O)CCCCCCCCCC(=O)NO"
  pIC50: 5.27
- molecule: "CCc1c2c(nc3ccc(OC(=O)N4CCN(C(=O)CCCCCC(=O)NO)CC4)cc13)-c1cc3c(c(=O)n1C2)COC(=O)[C@]3(O)CC"
  pIC50: 4.92
- molecule: "CCc1c2c(nc3ccc(O)cc13)-c1cc3c(c(=O)n1C2)COC(=O)[C@@]3(CC)OC(=O)CCCCCCCCC(=O)NO"
  pIC50: 6.11
- molecule: "CCc1c2c(nc3ccc(OC(=O)N4CCN(C(=O)CCCCCCCCCC(=O)NO)CC4)cc13)-c1cc3c(c(=O)n1C2)COC(=O)[C@]3(O)CC"
  pIC50: 4.61

Task: Tell me pIC50 reported for CCc1c2c(nc3ccc(O)cc13)-c1cc3c(c(=O)n1C2)COC(=O)[C@@]3(CC)OC(=O)CNC(=O)CCCCCCC(=O)O
Output: 4.46

Task: Output pIC50 of CCc1c2c(nc3ccc(O)cc13)-c1cc3c(c(=O)n1C2)COC(=O)[C@@]3(CC)OC(=O)CNC(=O)CCCCCCC(=O)NO
Output: 5.80

Task: Identify measured pIC50 corresponding to CCc1c2c(nc3ccc(OC(=O)N4CCN(C(=O)CCCCCCCC(=O)NO)CC4)cc13)-c1cc3c(c(=O)n1C2)COC(=O)[C@]3(O)CC
Output: 4.73

Task: Please look at this molecule and report its pIC50: CCc1c2c(nc3ccc(OC(=O)N4CCN(C(=O)CCCCCCCCCCC(=O)NO)CC4)cc13)-c1cc3c(c(=O)n1C2)COC(=O)[C@]3(O)CC
Output: 4.56

Task: For the molecule CCc1c2c(nc3ccc(OC(=O)N4CCN(C(=O)CCCCCCCCC(=O)NO)CC4)cc13)-c1cc3c(c(=O)n1C2)COC(=O)[C@]3(O)CC , report pIC50.
Output: 4.60

---

Target: Histone deacetylase 1 (Homo sapiens)
Sequence (Q13547 whole entry): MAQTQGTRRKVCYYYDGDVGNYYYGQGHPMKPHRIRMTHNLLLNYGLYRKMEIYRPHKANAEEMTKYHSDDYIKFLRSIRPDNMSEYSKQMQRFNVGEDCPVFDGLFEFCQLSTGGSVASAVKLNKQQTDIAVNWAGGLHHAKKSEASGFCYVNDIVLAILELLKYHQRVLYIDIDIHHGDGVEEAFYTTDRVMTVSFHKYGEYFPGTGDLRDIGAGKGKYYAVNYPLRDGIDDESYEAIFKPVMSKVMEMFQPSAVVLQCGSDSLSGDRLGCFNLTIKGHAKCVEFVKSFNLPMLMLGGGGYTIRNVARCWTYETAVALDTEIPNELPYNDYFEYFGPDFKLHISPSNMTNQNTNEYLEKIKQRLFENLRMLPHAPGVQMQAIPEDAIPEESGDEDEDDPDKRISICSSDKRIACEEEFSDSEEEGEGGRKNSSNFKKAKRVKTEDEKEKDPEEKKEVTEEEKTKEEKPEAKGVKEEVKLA
Experiment: Inhibition of recombinant human HDAC1 expressed in baculovirus infected High5 insect cells using Ac-Lys-Tyr-Lys(epsilon-acetyl)-AMC as substrate after 24 hrs by fluorescence assay
recorded-metric: pIC50
Note on pIC50: it is the negative log10 of concentration, concentration in mol/L.

Example results:
- molecule: "CCc1c2c(nc3ccc(O)cc13)-c1cc3c(c(=O)n1C2)COC(=O)[C@@]3(CC)OC(=O)CCCCCC(=O)NO"
  reported-result: 6.96
- molecule: "CCc1c2c(nc3ccc(OC(=O)N4CCN(C(=O)CCCCCCCCCCC(=O)NO)CC4)cc13)-c1cc3c(c(=O)n1C2)COC(=O)[C@]3(O)CC"
  reported-result: 4.96
- molecule: "CCc1c2c(nc3ccc(OC(=O)N4CCN(C(=O)CCCCCCCC(=O)NO)CC4)cc13)-c1cc3c(c(=O)n1C2)COC(=O)[C@]3(O)CC"
  reported-result: 4.71

From here, focus on the item given below.
Task: Using the record for CCc1c2c(nc3ccc(OC(=O)N4CCN(C(=O)CCCCCCC(=O)NO)CC4)cc13)-c1cc3c(c(=O)n1C2)COC(=O)[C@]3(O)CC , state its measured pIC50.
Output: 5.25

---

Target: Protein deacetylase HDAC6 (Homo sapiens)
Sequence (Q9UBN7 whole entry): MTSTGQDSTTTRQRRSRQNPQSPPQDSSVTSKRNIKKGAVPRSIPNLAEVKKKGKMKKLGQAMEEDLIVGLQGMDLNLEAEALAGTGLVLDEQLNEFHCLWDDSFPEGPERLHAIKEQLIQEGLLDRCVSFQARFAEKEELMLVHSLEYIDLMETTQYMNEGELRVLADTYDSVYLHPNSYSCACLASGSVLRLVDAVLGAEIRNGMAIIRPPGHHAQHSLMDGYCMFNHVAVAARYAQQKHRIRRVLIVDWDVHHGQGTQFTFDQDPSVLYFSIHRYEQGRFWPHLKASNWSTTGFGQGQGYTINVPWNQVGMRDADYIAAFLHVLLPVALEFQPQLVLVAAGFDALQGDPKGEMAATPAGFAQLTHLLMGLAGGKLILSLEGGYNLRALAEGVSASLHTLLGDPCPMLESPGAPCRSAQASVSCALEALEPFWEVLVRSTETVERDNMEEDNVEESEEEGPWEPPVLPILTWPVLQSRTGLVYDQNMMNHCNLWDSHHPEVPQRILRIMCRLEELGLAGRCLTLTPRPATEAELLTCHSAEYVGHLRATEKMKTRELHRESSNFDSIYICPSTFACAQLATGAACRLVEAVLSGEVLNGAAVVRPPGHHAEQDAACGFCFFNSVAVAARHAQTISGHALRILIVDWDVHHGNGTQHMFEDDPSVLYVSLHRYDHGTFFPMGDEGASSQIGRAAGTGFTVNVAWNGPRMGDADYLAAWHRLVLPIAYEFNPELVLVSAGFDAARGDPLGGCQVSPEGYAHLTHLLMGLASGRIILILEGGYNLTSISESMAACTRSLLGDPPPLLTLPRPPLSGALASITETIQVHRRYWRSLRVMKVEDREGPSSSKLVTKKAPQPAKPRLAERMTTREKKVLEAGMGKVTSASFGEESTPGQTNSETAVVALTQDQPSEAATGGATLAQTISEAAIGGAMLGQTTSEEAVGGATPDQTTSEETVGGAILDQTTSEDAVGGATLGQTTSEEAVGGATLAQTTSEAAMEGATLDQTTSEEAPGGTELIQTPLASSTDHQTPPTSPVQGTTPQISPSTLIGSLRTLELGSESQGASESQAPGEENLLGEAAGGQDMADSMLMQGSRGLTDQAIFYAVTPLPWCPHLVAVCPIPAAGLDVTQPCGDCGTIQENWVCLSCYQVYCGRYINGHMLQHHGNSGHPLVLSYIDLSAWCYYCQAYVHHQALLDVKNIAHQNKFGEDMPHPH
Assay: Inhibition of recombinant human HDAC6 expressed in baculovirus infected High5 insect cells using Boc-Lys (epsilon-acetyl)-AMC as substrate after 3 hrs by fluorescence assay
recorded-metric: pIC50
# pIC50 is unitless: minus log10 of the molar concentration; print number only

- molecule: "CCc1c2c(nc3ccc(O)cc13)-c1cc3c(c(=O)n1C2)COC(=O)[C@@]3(CC)OC(=O)CNC(=O)CCCCCCC(=O)NO"
  reported-result: 6.07
- molecule: "CCc1c2c(nc3ccc(OC(=O)N4CCN(C(=O)CCCCCCCCCCC(=O)NO)CC4)cc13)-c1cc3c(c(=O)n1C2)COC(=O)[C@]3(O)CC"
  reported-result: 5.45
- molecule: "CCc1c2c(nc3ccc(OC(=O)N4CCN(C(=O)CCCCCCCCCC(=O)NO)CC4)cc13)-c1cc3c(c(=O)n1C2)COC(=O)[C@]3(O)CC"
  reported-result: 5.33
- molecule: "CCc1c2c(nc3ccc(O)cc13)-c1cc3c(c(=O)n1C2)COC(=O)[C@@]3(CC)OC(=O)CCCCCCC(=O)O"
  reported-result: 5.16
- molecule: "CCc1c2c(nc3ccc(O)cc13)-c1cc3c(c(=O)n1C2)COC(=O)[C@@]3(CC)OC(=O)CCCCCCCCCC(=O)NO"
  reported-result: 6.21

Task: State its pIC50 for this molecule: CCc1c2c(nc3ccc(O)cc13)-c1cc3c(c(=O)n1C2)COC(=O)[C@@]3(CC)OC(=O)CCCCCCCCCCC(=O)NO
Output: 5.97

Task: Could you please provide reported pIC50 for CCc1c2c(nc3ccc(O)cc13)-c1cc3c(c(=O)n1C2)COC(=O)[C@@]3(CC)OC(=O)CCCCCC(=O)NO ? Thanks!
Output: 6.66

---

Molecular target: Histone deacetylase 3 (Homo sapiens)
Experiment: Inhibition of recombinant human HDAC3 expressed in baculovirus infected High5 insect cells using Ac-Lys-Tyr-Lys(epsilon-acetyl)-AMC as substrate after 24 hrs by fluorescence assay
recorded-metric: pIC50
Just so you know, pIC50 here is -log10 of the concentration in molar units; reply with that number alone.

Consider the following illustrative entries.
- molecule: "CCc1c2c(nc3ccc(O)cc13)-c1cc3c(c(=O)n1C2)COC(=O)[C@@]3(CC)OC(=O)CCCCCC(=O)NO"
  pIC50: 7.00
- molecule: "CCc1c2c(nc3ccc(O)cc13)-c1cc3c(c(=O)n1C2)COC(=O)[C@@]3(CC)OC(=O)CCCCCCC(=O)O"
  pIC50: 4.43
- molecule: "CCc1c2c(nc3ccc(O)cc13)-c1cc3c(c(=O)n1C2)COC(=O)[C@@]3(CC)OC(=O)CCCCCCCCCCC(=O)NO"
  pIC50: 4.93

Switching to the query record.
Task: Name the recorded pIC50 of the item CCc1c2c(nc3ccc(O)cc13)-c1cc3c(c(=O)n1C2)COC(=O)[C@@]3(CC)OC(=O)CCCCCCCC(=O)NO in your answer.
Output: 6.00

---

Assay: Half life in PBS at pH 7.4 at 50 uM by HPLC analysis
Type: physicochemical
recorded-metric: half-life at 50 µM (h)
Reply with just the number (in h).

Task: Return reported half-life at 50 µM. Input compound: CCc1c2c(nc3ccc(O)cc13)-c1cc3c(c(=O)n1C2)COC(=O)[C@@]3(CC)OC(=O)CNC(=O)CCCCCCC(=O)NO
Output: 5

---

Molecular target: Protein deacetylase HDAC6 (Homo sapiens)
Assay: Inhibition of HDAC6 in human HCT116 cells assessed as increase in acetylated tubulin levels at 1 to 10 uM after 24 hrs by Western blot analysis
Assay type: cell-based
Active and inactive are the calls of the source. The calls are words filed in the database; no cut-off is given here.
In this exercise, the only acceptable responses are t for active, f for inactive

Task: Hello, I am checking results. What call was entered for CCc1c2c(nc3ccc(O)cc13)-c1cc3c(c(=O)n1C2)COC(=O)[C@@]3(CC)OC(=O)CNC(=O)CCCCCCC(=O)O ?
Output: t

Task: Given CCc1c2c(nc3ccc(O)cc13)-c1cc3c(c(=O)n1C2)COC(=O)[C@@]3(CC)OC(=O)CNC(=O)CCCCCCC(=O)NO , state the outcome it received in this test.
Output: f

Task: Recorded test call requested for CCc1c2c(nc3ccc(O)cc13)-c1cc3c(c(=O)n1C2)COC(=O)[C@@]3(CC)OC(=O)CCCCCCC(=O)O
Output: t

Task: For this compound, state the assay outcome: CCc1c2c(nc3ccc(O)cc13)-c1cc3c(c(=O)n1C2)COC(=O)[C@@]3(CC)OC(=O)CCCCCC(=O)NO
Output: f

Task: Short answer needed: outcome of this test for CCc1c2c(nc3ccc(O)cc13)-c1cc3c(c(=O)n1C2)COC(=O)[C@@]3(CC)OC(=O)CCCCCCC(=O)NO ?
Output: f
